Ref: patent US20180258158A1

# EXPERIMENTAL_SYSTEM: T1, human serum albumin (HSA), full length (human, UniProt P02768 25-609)
# T1 construct: mature; Immobilized on CM5 chip (SPR) or coated on plates (ELISA)
# T1 sequence (P02768 25-609): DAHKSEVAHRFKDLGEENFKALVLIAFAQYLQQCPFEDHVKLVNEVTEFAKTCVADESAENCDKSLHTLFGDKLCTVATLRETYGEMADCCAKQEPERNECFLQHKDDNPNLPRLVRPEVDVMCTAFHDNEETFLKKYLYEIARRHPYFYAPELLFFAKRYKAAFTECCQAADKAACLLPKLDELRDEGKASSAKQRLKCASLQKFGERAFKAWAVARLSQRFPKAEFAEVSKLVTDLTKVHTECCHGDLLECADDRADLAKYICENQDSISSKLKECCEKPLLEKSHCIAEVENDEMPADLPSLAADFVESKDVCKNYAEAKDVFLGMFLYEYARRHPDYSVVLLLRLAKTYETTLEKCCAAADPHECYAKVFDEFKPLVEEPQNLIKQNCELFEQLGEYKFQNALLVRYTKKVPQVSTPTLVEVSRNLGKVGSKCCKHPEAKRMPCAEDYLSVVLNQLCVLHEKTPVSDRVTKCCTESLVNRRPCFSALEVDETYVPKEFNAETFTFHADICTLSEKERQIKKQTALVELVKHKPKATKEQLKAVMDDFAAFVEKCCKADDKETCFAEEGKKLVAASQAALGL
# EXPERIMENT: SPR, immobilized HSA, 500 nM Adnectin, 25 C
A collection of binders and their measured HSA Binding (RU)
PROPERTY_NAME: HSA Binding (RU)

binder="ADX_6727_A07 (Y44S/K85T) (designed binder, Full His6-tagged entry) MGVSDVPRDLEVVAATPTSLLISWDAPAVTVRYYRITYGREVQKYSDLGPLYISQEFTVPGSKSTATISGLKPGVDYTITVYAVTGSGESPASSTPISINYRTEIDKPSQHHHHHH" property_name="HSA Binding (RU)" measurement=28
binder="ADX_6727_F10 (Y35A/K85T) (designed binder, Full His6-tagged entry) MGVSDVPRDLEVVAATPTSLLISWDAPAVTVRYYRITYGREVQKASDLGPLYIYQEFTVPGSKSTATISGLKPGVDYTITVYAVTGSGESPASSTPISINYRTEIDKPSQHHHHHH" property_name="HSA Binding (RU)" measurement=22
binder="ADX_6727_D03 (L41S) (designed binder, Full His6-tagged entry) MGVSDVPRDLEVVAATPTSLLISWDAPAVTVRYYRITYGREVQKYSDLGPSYIYQEFTVPGSKSTATISGLKPGVDYTITVYAVTGSGESPASSKPISINYRTEIDKPSQHHHHHH" property_name="HSA Binding (RU)" measurement=24
binder="ADX_6727_H10 (L41S/K85S) (designed binder, Full His6-tagged entry) MGVSDVPRDLEVVAATPTSLLISWDAPAVTVRYYRITYGREVQKYSDLGPSYIYQEFTVPGSKSTATISGLKPGVDYTITVYAVTGSGESPASSSPISINYRTEIDKPSQHHHHHH" property_name="HSA Binding (RU)" measurement=19
